Each entry below carries its recorded kon.
- experimentalTarget: T1, recombinant antigen of the extracellular region of CD47 (Sino Biological, Cat: 12283-H08H) (human, UniProt Q08722 19-139)
- T1 construct: extracellular domain; also called recombinant CD47 extracellular region; CD47 recombinant protein
- T1 sequence (Q08722 19-139 limits assumed): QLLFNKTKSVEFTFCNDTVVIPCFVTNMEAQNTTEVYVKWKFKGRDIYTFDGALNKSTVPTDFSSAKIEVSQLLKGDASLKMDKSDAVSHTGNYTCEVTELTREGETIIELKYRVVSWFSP
- experimentDescription: Fortebio BLI, recombinant CD47
Only the number, expressed in M⁻¹ s⁻¹, is required.

Look over these answered cases.
>>> readoutvalue("hz140-Hm13/hz182-Lm4 (antibody, V domains shown) VH: EVQLVQSGAEVKKPGASVKVSCKASGYKFTNYVMSWVRQAPGQRLEWMGYINPYNDAIKYNEKFTGRVTITRDTSASTAYMELSSLRSEDTAVYYCAREGDFYANYGRLGFAYWGQGTLVTVSS VL: DIQMTQSPSSLSASVGDRVTITCRASQDITNYLNWYQQKPGKAPKLLLYYTSRLHSGVPSRFSGSGSGTDYTLTISSLQPEDFATYFCQQGAGRPYTFGGGTKVEIKR")
87900
>>> readoutvalue("hz140-Hm13/hz182-Lm9 (antibody, V domains shown) VH: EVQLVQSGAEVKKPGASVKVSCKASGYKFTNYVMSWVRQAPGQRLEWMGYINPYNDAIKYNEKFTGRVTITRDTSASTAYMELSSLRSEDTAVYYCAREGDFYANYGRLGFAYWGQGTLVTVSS VL: DIQMTQSPSSLSASVGDRVTITCRASQDISNYLNWYQQKPGKAPKLLLYYTSRLHSGVPSRFSGSGSGTDYTLTISSLQPEDFATYFCQQGDTFPYTFGGGTKVEIKR")
132000

**Q:** Field request: kon | item: hz140-Hm13/hz182-Lm2 (antibody, V domains shown) VH: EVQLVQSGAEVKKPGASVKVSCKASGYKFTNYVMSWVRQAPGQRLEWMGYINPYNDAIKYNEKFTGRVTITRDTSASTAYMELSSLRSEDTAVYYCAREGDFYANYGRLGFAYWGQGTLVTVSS VL: DIQMTQSPSSLSASVGDRVTITCRASQDISNYLNWYQQKPGKAPKLLLYYTSRLHSGVPSRFSGSGSGTDYTFTISSLQPEDFATYFCQQGAGRPYTFGGGTKVEIKR
**A:** 94700
